Conditions: 338 K, Capillary rise
Exercise: state measured surface tension liquid-gas for each of the compounds provided.
Answer in mN/m, number only, no unit symbol.

// returns reported surface tension liquid-gas for input CCCCCCn1cc[n+](C)c1.F[B-](F)(F)F [1-hexyl-3-methylimidazolium tetrafluoroborate]
37.2

// returns reported surface tension liquid-gas for input CCCCCCn1cc[n+](C)c1.[I-] [1-hexyl-3-methylimidazolium iodide]
40.4

// returns reported surface tension liquid-gas for input CCCCn1cc[n+](C)c1.F[B-](F)(F)F [1-butyl-3-methylimidazolium tetrafluoroborate]
41.2

// returns reported surface tension liquid-gas for input CCCCCCCC[n+]1ccn(C)c1.F[B-](F)(F)F [1-methyl-3-octylimidazolium tetrafluoroborate]
28.7

---

Details: 393 K, Capillary rise
surface tension liquid-gas class ranges: LOW: < 30 mN/m; MEDIUM: ≥ 30 mN/m and < 40 mN/m; HIGH: ≥ 40 mN/m

// return the class label for CCCCCCn1cc[n+](C)c1.F[B-](F)(F)F [1-hexyl-3-methylimidazolium tetrafluoroborate]
MEDIUM

// return the class label for CCCCCCCC[n+]1ccn(C)c1.F[B-](F)(F)F [1-methyl-3-octylimidazolium tetrafluoroborate]
LOW

// return the class label for CCCCn1cc[n+](C)c1.[I-] [1-butyl-3-methylimidazolium iodide]
HIGH

// return the class label for CCCCn1cc[n+](C)c1.F[B-](F)(F)F [1-butyl-3-methylimidazolium tetrafluoroborate]
MEDIUM

// return the class label for CCCCn1cc[n+](C)c1.[Cl-] [1-butyl-3-methylimidazolium chloride]
HIGH

// return the class label for CCCCCCn1cc[n+](C)c1.[I-] [1-hexyl-3-methylimidazolium iodide]
MEDIUM

// return the class label for CCCCCCn1cc[n+](C)c1.[Cl-] [1-hexyl-3-methylimidazolium chloride]
MEDIUM

// return the class label for CCCCCCCC[n+]1ccn(C)c1.[Cl-] [1-methyl-3-octylimidazolium chloride]
LOW

---

Conditions: 313 K, Capillary rise
ASSAY_READOUT: surface tension liquid-gas (mN/m)
Answer in mN/m, number only, no unit symbol.

// returns reported surface tension liquid-gas for input CCCCn1cc[n+](C)c1.F[B-](F)(F)F [1-butyl-3-methylimidazolium tetrafluoroborate]
42.7

// returns reported surface tension liquid-gas for input CCCCn1cc[n+](C)c1.[Cl-] [1-butyl-3-methylimidazolium chloride]
47.2

// returns reported surface tension liquid-gas for input CCCCCCn1cc[n+](C)c1.[Cl-] [1-hexyl-3-methylimidazolium chloride]
40.8

// returns reported surface tension liquid-gas for input CCCCCCCC[n+]1ccn(C)c1.F[B-](F)(F)F [1-methyl-3-octylimidazolium tetrafluoroborate]
29.9

---

Details: 388 K, Capillary rise
surface tension liquid-gas class ranges: low: < 30 mN/m; middle: ≥ 30 mN/m and < 40 mN/m; high: ≥ 40 mN/m

// return the class label for CCCCCCCC[n+]1ccn(C)c1.[Cl-] [1-methyl-3-octylimidazolium chloride]
low

// return the class label for CCCCn1cc[n+](C)c1.[Cl-] [1-butyl-3-methylimidazolium chloride]
high

// return the class label for CCCCn1cc[n+](C)c1.[I-] [1-butyl-3-methylimidazolium iodide]
high

// return the class label for CCCCCCCC[n+]1ccn(C)c1.F[B-](F)(F)F [1-methyl-3-octylimidazolium tetrafluoroborate]
low

// return the class label for CCCCCCn1cc[n+](C)c1.[Cl-] [1-hexyl-3-methylimidazolium chloride]
middle

// return the class label for CCCCCCn1cc[n+](C)c1.[I-] [1-hexyl-3-methylimidazolium iodide]
middle

// return the class label for CCCCn1cc[n+](C)c1.F[B-](F)(F)F [1-butyl-3-methylimidazolium tetrafluoroborate]
middle

// return the class label for CCCCCCn1cc[n+](C)c1.F[B-](F)(F)F [1-hexyl-3-methylimidazolium tetrafluoroborate]
middle

---

Conditions: 378 K, Capillary rise
Classify by measured surface tension liquid-gas: yes if it is equal to or exceeds 40 mN/m, no if it is smaller.

Does the reported surface tension liquid-gas for CCCCCCn1cc[n+](C)c1.[Cl-] [1-hexyl-3-methylimidazolium chloride] fall at or above the 40 mN/m mark?
no

Does the reported surface tension liquid-gas for CCCCn1cc[n+](C)c1.[Cl-] [1-butyl-3-methylimidazolium chloride] fall at or above the 40 mN/m mark?
yes

Does the reported surface tension liquid-gas for CCCCCCn1cc[n+](C)c1.[I-] [1-hexyl-3-methylimidazolium iodide] fall at or above the 40 mN/m mark?
no

Does the reported surface tension liquid-gas for CCCCCCn1cc[n+](C)c1.F[B-](F)(F)F [1-hexyl-3-methylimidazolium tetrafluoroborate] fall at or above the 40 mN/m mark?
no

Does the reported surface tension liquid-gas for CCCCCCCC[n+]1ccn(C)c1.[Cl-] [1-methyl-3-octylimidazolium chloride] fall at or above the 40 mN/m mark?
no

Does the reported surface tension liquid-gas for CCCCn1cc[n+](C)c1.F[P-](F)(F)(F)(F)F [1-butyl-3-methylimidazolium hexafluorophosphate] fall at or above the 40 mN/m mark?
yes

Does the reported surface tension liquid-gas for CCCCn1cc[n+](C)c1.[I-] [1-butyl-3-methylimidazolium iodide] fall at or above the 40 mN/m mark?
yes

Does the reported surface tension liquid-gas for CCCCCCCC[n+]1ccn(C)c1.F[B-](F)(F)F [1-methyl-3-octylimidazolium tetrafluoroborate] fall at or above the 40 mN/m mark?
no

---

Conditions: 323 K, Capillary rise
ASSAY_READOUT: surface tension liquid-gas (mN/m)
Answer in mN/m, number only, no unit symbol.

// returns reported surface tension liquid-gas for input CCCCn1cc[n+](C)c1.F[P-](F)(F)(F)(F)F [1-butyl-3-methylimidazolium hexafluorophosphate]
45.6

// returns reported surface tension liquid-gas for input CCCCCCn1cc[n+](C)c1.F[P-](F)(F)(F)(F)F [1-hexyl-3-methylimidazolium hexafluorophosphate]
41.5

// returns reported surface tension liquid-gas for input CCCCn1cc[n+](C)c1.[Cl-] [1-butyl-3-methylimidazolium chloride]
46.6

// returns reported surface tension liquid-gas for input CCCCCCn1cc[n+](C)c1.[Cl-] [1-hexyl-3-methylimidazolium chloride]
40.2

// returns reported surface tension liquid-gas for input CCCCCCn1cc[n+](C)c1.F[B-](F)(F)F [1-hexyl-3-methylimidazolium tetrafluoroborate]
37.9

// returns reported surface tension liquid-gas for input CCCCn1cc[n+](C)c1.F[B-](F)(F)F [1-butyl-3-methylimidazolium tetrafluoroborate]
42

// returns reported surface tension liquid-gas for input CCCCCCCC[n+]1ccn(C)c1.[Cl-] [1-methyl-3-octylimidazolium chloride]
30.6

// returns reported surface tension liquid-gas for input CCCCn1cc[n+](C)c1.[I-] [1-butyl-3-methylimidazolium iodide]
51.1

// returns reported surface tension liquid-gas for input CCCCCCCC[n+]1ccn(C)c1.F[B-](F)(F)F [1-methyl-3-octylimidazolium tetrafluoroborate]
29.4

// returns reported surface tension liquid-gas for input CCCCCCn1cc[n+](C)c1.[I-] [1-hexyl-3-methylimidazolium iodide]
41.5

---

Details: 358 K, Capillary rise
ASSAY_READOUT: surface tension liquid-gas (mN/m)
Answer in mN/m, number only, no unit symbol.

// returns reported surface tension liquid-gas for input CCCCn1cc[n+](C)c1.F[P-](F)(F)(F)(F)F [1-butyl-3-methylimidazolium hexafluorophosphate]
43.1

// returns reported surface tension liquid-gas for input CCCCCCn1cc[n+](C)c1.F[B-](F)(F)F [1-hexyl-3-methylimidazolium tetrafluoroborate]
36.2

// returns reported surface tension liquid-gas for input CCCCCCn1cc[n+](C)c1.[I-] [1-hexyl-3-methylimidazolium iodide]
39

// returns reported surface tension liquid-gas for input CCCCCCn1cc[n+](C)c1.F[P-](F)(F)(F)(F)F [1-hexyl-3-methylimidazolium hexafluorophosphate]
39.1

// returns reported surface tension liquid-gas for input CCCCCCn1cc[n+](C)c1.[Cl-] [1-hexyl-3-methylimidazolium chloride]
38.3

// returns reported surface tension liquid-gas for input CCCCn1cc[n+](C)c1.F[B-](F)(F)F [1-butyl-3-methylimidazolium tetrafluoroborate]
40.2

// returns reported surface tension liquid-gas for input CCCCn1cc[n+](C)c1.[Cl-] [1-butyl-3-methylimidazolium chloride]
44.4

// returns reported surface tension liquid-gas for input CCCCCCCC[n+]1ccn(C)c1.F[B-](F)(F)F [1-methyl-3-octylimidazolium tetrafluoroborate]
27.7

// returns reported surface tension liquid-gas for input CCCCCCCC[n+]1ccn(C)c1.[Cl-] [1-methyl-3-octylimidazolium chloride]
28.7

// returns reported surface tension liquid-gas for input CCCCn1cc[n+](C)c1.[I-] [1-butyl-3-methylimidazolium iodide]
48.2

---

Conditions: 328 K, Capillary rise
ASSAY_READOUT: surface tension liquid-gas (mN/m)
Answer in mN/m, number only, no unit symbol.

// returns reported surface tension liquid-gas for input CCCCn1cc[n+](C)c1.[Cl-] [1-butyl-3-methylimidazolium chloride]
46.3

// returns reported surface tension liquid-gas for input CCCCCCn1cc[n+](C)c1.[Cl-] [1-hexyl-3-methylimidazolium chloride]
40

// returns reported surface tension liquid-gas for input CCCCCCn1cc[n+](C)c1.F[P-](F)(F)(F)(F)F [1-hexyl-3-methylimidazolium hexafluorophosphate]
41.1

// returns reported surface tension liquid-gas for input CCCCn1cc[n+](C)c1.F[P-](F)(F)(F)(F)F [1-butyl-3-methylimidazolium hexafluorophosphate]
45.3

// returns reported surface tension liquid-gas for input CCCCCCCC[n+]1ccn(C)c1.[Cl-] [1-methyl-3-octylimidazolium chloride]
30.3

// returns reported surface tension liquid-gas for input CCCCCCCC[n+]1ccn(C)c1.F[B-](F)(F)F [1-methyl-3-octylimidazolium tetrafluoroborate]
29.2

// returns reported surface tension liquid-gas for input CCCCCCn1cc[n+](C)c1.F[B-](F)(F)F [1-hexyl-3-methylimidazolium tetrafluoroborate]
37.7

The measured values listed here are drawn from the NIST ThermoML archive (doi:10.1016/j.fluid.2007.10.004).
